assay.details: Plasma protein binding (RED)
Format: in vitro ADME
test.readout: fraction unbound at 4 h

1. COc1ccc(N2C(=O)c3[nH]nc(CC(C)C)c3C2c2ccc(F)cc2)cc1 (racemic): 0.025

* * *

Overview of recorded CC50 for various compounds
assay.details: GSK inMac assay, host cell toxicity readout (LD MAC)
Format: cell-based, human
condition.parameters: human; footnote c; read-out: THP-1 Host Cell CC50
Description: The intramacrophage Leishmania donovani activity assay (LD AMMAC) at GlaxoSmithKline was performed as described. Given the literature precedents described above and the apparent narrow tolerance for R^3 substitutions observed in the primary screen compounds, a thorough and methodical assessment was undertaken of tolerated groups at the three points of diversity (R^1/R^2/R^3) for the core. […] In addition, compounds were assessed for toxicity against HepG2 cells (HEPG2 EC50). […]
test.readout: CC50 (µM)

1) COc1ccc(N2C(=O)c3[nH]nc(CC(C)C)c3C2c2ccccc2Cl)c(OC)c1 (stereo not drawn): 20
2) COc1ccc(N2C(=O)c3[nH]nc(CC(C)C)c3C2c2cc(C(F)(F)F)ccc2C(F)(F)F)cc1 (stereo not drawn): 25.1
3) COc1ccc(N2C(=O)c3[nH]nc(CC(C)C)c3C2c2ccc(F)cc2C)cc1 (stereo not drawn): 25.1
4) COc1cc(N2C(=O)c3[nH]nc(CC(C)C)c3C2c2ccccc2Cl)cc(OC)c1OC (stereo not drawn): 6.3
5) CC(C)Cc1n[nH]c2c1C(c1cccc(C(F)(F)F)c1)N(CCN1CCCC1)C2=O (stereo not drawn): 39.8
6) COc1ccc(N2C(=O)c3c(c(CC(C)C)nn3C)C2c2ccc(F)cc2)cc1 (stereo not drawn): 25.1
7) COc1ccc(N2C(=O)c3[nH]nc(CC(C)C)c3C2c2ccccc2Cl)cc1 (stereo not drawn): 20
8) COc1cc(F)ccc1C1c2c(CC(C)C)n[nH]c2C(=O)N1c1ccc(N(C)C)cc1 (stereo not drawn): 8.5
9) COc1cccc(N2C(=O)c3[nH]nc(CC(C)C)c3C2c2cccc(C(F)(F)F)c2)c1 (stereo not drawn): 20
10) C#CCn1nc(CC(C)C)c2c1C(=O)N(c1ccc(OC)cc1)C2c1ccc(F)cc1 (stereo not drawn): 20
11) COc1ccc(N2C(=O)c3[nH]nc(-c4ccc(OCc5ccccc5)cc4)c3C2c2ccc(F)cc2)cc1 (stereo not drawn): 15.8
